test: folding stability dG unfold from chymotrypsin proteolysis; higher = more stable
observable: folding stability dG unfold
Kindly report the value followed by its unit.

For orientation, consider the following solved cases.
{"residueString": "SVYNPNNPNIPTKLTVTIPVPEEVVAAGDTAAAEAAAEATAAALAPEGWRVTSVSFPRETGTMTVTLTRPSA [r9_75_JUSTAS]", "folding stability dG unfold": "1.16 kcal/mol"}
{"residueString": "SAGMTFKNPGSDKTLTYEPETGAITLHNGDSVSTLPLPPGTSFTVTVDPEKGVVTITVPETGATITLPLSAG [r5_858_JUSTAS]", "folding stability dG unfold": "0.248 kcal/mol"}
{"residueString": "SAGGSAGGSAGEKVIRFPFKSPEEIREHIKNGRPIRFPNGKPVKITKIQPYPNGWLWITVSAGGSAGGSAGG [r11_48_TrROS]", "folding stability dG unfold": "1.3 kcal/mol"}

Input line: Which value of folding stability dG unfold has been reported for SAGAVSTFENSNPSISLEELKEKIEEKLGIELVELKKVEDVPGGLKYEIVVPKIKGEKPFSAEEIAKLLSAG [r5_550_JUSTAS] in the records?
Output line: -0.0356 kcal/mol

Input line: folding stability dG unfold lookup needed for SAGGGPSMTITVTVSSSELTSGSGPGPLTPEDVAKRLEAELPPGNVTVTVVEVDPATGEVTVRIEVESAGGS [r16_284_JUSTAS] , thanks.
Output line: 1.1 kcal/mol

Input line: Dear colleague, I am looking for the recorded folding stability dG unfold of the following sequence: SAGGSAKLNITKILSVEFSEDGTIRIKVENENGELYELEIKVKVIPPPEKPEIDPKYLTPEDLEKYSAGGSA [r15_41_TrMRF]
Output line: 1.61 kcal/mol

Input line: Give its folding stability dG unfold value. Item: SAGGMKIKTKSGKELTLKKIKLKYKNKEYEIENLKIKAIKYDPKKKIVHIEVTHPNGKKYTFDLKIKSAGGS [r8_215_TrMRF]
Output line: 3.49 kcal/mol

---

test: folding stability dG unfold from trypsin proteolysis; higher = more stable
observable: folding stability dG unfold (kcal/mol)
Please reply with the bare figure in kcal/mol and do not write the unit itself.

Example cases with answers are listed next.
{"residueString": "SAAVTPLTETIPYTPEEARAAAEEVAAARAAALRAAGYRVLSVDVVEMEPGEYVIRMRLTVAAPDEALPSAG [r14_973_JUSTAS]", "unit": "kcal/mol", "measuredValue": 2.22}
{"residueString": "SAGGSAGGSAGMTLEELERLGYKVEVFRHPDTPEVYVRVEYPVPPGGLKRAVIPLKDVKLSAGGSAGGSAGG [r17_311_TrMRF]", "unit": "kcal/mol", "measuredValue": -1.35}
{"residueString": "SMTAEEIAERLARALEEAGIRRVEVEVTVEYDPETDEVTVTVTIRVEPAPEAPPEEEEERREREEREAEESA [r9_440_TrROS_Hall]", "unit": "kcal/mol", "measuredValue": 2.26}

Field: next sequence
Input line: Using the record for SAGGSAGGDRLEVVAPVDDPVEQAREFAERLREEFRRRYPDREIDRVEVFYDPGARTLHVRLYPSAGGSAGG [r6_662_TrMRF] , report its folding stability dG unfold.
Output line: 2.12

---

folding stability dG unfold reference
test: folding stability dG unfold from chymotrypsin proteolysis; higher = more stable
Number only, in kcal/mol; omit the unit.

Solved entries:
{"residueString": "SAGGSAGGSAGGGPDAVRQFPPPVNLSVEVTSYTSPSSSLSNGKPEKSTFTTLNPTAGVSAGGSAGGSAGGS [r10_877_JUSTAS]", "unit": "kcal/mol", "measuredValue": 0.0744}
{"residueString": "SAGGDTVTTTETFPEKPILTVTTTSFSPSGTTTTTTTTYEVENGKIVSKLSTTTTTTAVAPAPPGTASAGGS [r16_682_JUSTAS]", "unit": "kcal/mol", "measuredValue": 1.05}

Input line: Look up folding stability dG unfold for this sequence: SMKITIVNKNGEKKEIEVTAKDGKKYKITVFKDKELVIKVEETTPDGKKKPVKVIKAKSLEEALEALKKASA [r9_942_TrROS_Hall]
Output line: 2.83

Input line: Param item = SAGGSAGGSAGGDVKVTVTVTVDPETGEPVVEVTLELPGDRAIRARFTPDGRLLSVEEVDSAGGSAGGSAGG [r7_454_TrMRF] ; retrieve measured folding stability dG unfold.
Output line: 3.01

Input line: What value of folding stability dG unfold has been reported for the following sequence? SAGGSAIKIDPDYGTIEIYNPDNGKEIEIPIDGLPPGRKMDIEINNDKIEIKMPGGTRELPIDDIKSAGGSA [r15_864_TrROS]
Output line: 0.655

Input line: Can you share its folding stability dG unfold? I mean this sequence: SAGGSAVKITVEEREIIVPPEEDPLAENNPGIVVKKKTVKYEKEMTPEEKEKFLKEIEEKTGIKIISAGGSA [r15_347_JUSTAS]
Output line: -0.162

Input line: Need folding stability dG unfold, item SEKPEFKIVKIEVVEVDEDGKTVKVRVVVEGPDGRLYEVEMTLEELKKLLEELGIDLEDIKPGDVIVIPPSA [r9_1078_TrROS_Hall]
Output line: 3.09

Input line: For SKKKKTIVIELTKDELKELLKKLKVEEGDEVEIFVRNKDGSIYKLTIKNGKITKIEPFKGVPNKVVIVIKSA [r9_849_TrROS_Hall] , what is its reported folding stability dG unfold?
Output line: 3.49

---

experiment: folding stability dG unfold (combined trypsin and chymotrypsin); higher = more stable
observable: folding stability dG unfold (kcal/mol)
Quick reminder: number only, in kcal/mol, skip the unit.

Recorded results for 3 sequences are shown here.
{"residueString": "SAGGSAGIEERLKKLAEELGLEVKVTKVEVKVDGKEEVVVEVEVEPPPPPVEVKELSEEERKKAEESAGGSA [r15_256_TrROS_Hall]", "unit": "kcal/mol", "folding stability dG unfold": 1.13}
{"residueString": "SAGGSAGGSAGGGKPVKVIVVEVGGKKVLVTFDEDTGKLTVYNLDTGKTETVTVSPEDLSAGGSAGGSAGGS [r10_669_TrROS_Hall]", "unit": "kcal/mol", "folding stability dG unfold": 1.77}
{"residueString": "SAGGSAGGKKFKPGQVVLDPKTKELYVIKGEVTVKEDGSLSIKVEKVKLPKPKKLTKEQLEKLKSAGGSAGG [r6_771_TrROS_Hall]", "unit": "kcal/mol", "folding stability dG unfold": 0.783}

We now examine a further sequence.
Input line: // returns reported folding stability dG unfold for input SAGGSAGGSAGGMIKTKDGKVLEFKSLEEALAALKELGVDEVEIEELEPEGVVKVKVKPSAGGSAGGSAGGS [r10_1191_TrROS_Hall]
Output line: 1.11

---

test: folding stability dG unfold (combined trypsin and chymotrypsin); higher = more stable
Measured folding stability dG unfold by item
Your answer should be a plain number; it is taken to be in kcal/mol.

{"residueString": "SAGGSAGGSADGNKPPEIKINLEVERHPNGMVEITATLHWPGGKEFPVRIMYNPDKIFIEISAGGSAGGSAG [r3_259_TrROS]", "folding stability dG unfold / kcal/mol": 3.19}
{"residueString": "SAGMVRIERDGDELLIEFEFPEDEPEAVRALIEAIESLGLEVVEAEIEAEPGEGDLRRVRLRFKIKPLESAG [r5_739_TrMRF]", "folding stability dG unfold / kcal/mol": 4.39}

Input line: Fill in: folding stability dG unfold of SAGGEKKPVKVKIEVESFKLPNVLVLKAKVYLPATGKWYEAIVIEGPTKTLVVIKFPDGSSLVLELNSAGGS [r16_657_TrMRF] is ___
Output line: 3.9

Input line: # input sequence: SAGGSAGGSAGPITITDIPSEEEAAALIAARPGVEVERKPVTLSEEERWEVTLTLPGEAASAGGSAGGSAGG [r17_542_JUSTAS] ; wanted: its folding stability dG unfold
Output line: -0.722

Input line: Any idea what folding stability dG unfold was measured for SAGGSAGGSAGMKPNEPDLVLLTTTVTLTTTETTTDEDGNTYTTTTTTTLTTTTLLPRGTSAGGSAGGSAGG [r17_523_TrROS_Hall] ?
Output line: 3.63

Input line: Give the measured folding stability dG unfold of SAGGSAGGSMTVETTPLATSRDPESDNTVTLTRTTVTFPDGTVRTETWTVTTAPDGTTTTTVSSAGGSAGGS [r12_250_JUSTAS] .
Output line: 0.999

---

test: folding stability dG unfold (combined trypsin and chymotrypsin); higher = more stable
observable: folding stability dG unfold (kcal/mol)
// note: answer is a bare numeric in kcal/mol

Examples from the recorded data:
{"residueString": "SAGGMSVTVSTHLSPEELRELVREIVEKNPGLEVKAVEVTDPATGEWRAVPLDEVPADRPVTVRVDLSRSAG [r5_357_JUSTAS]", "folding stability dG unfold (kcal/mol)": 0.495}
{"residueString": "SAGGGMTFNFTAPDGTPYEDVTTTPLPDGSTLVTVTQEDPKNPGVVTVTLIRLPSGADALEVTSGPVVSAGG [r13_370_JUSTAS]", "folding stability dG unfold (kcal/mol)": 0.944}
{"residueString": "SAMLTILSVETHTLPNGEEIVTVTLKTPDLETLDALLAELGLTGTRDPDDPQVVTITTSREKVQEIKEKSAG [r14_777_JUSTAS]", "folding stability dG unfold (kcal/mol)": 4.57}
{"residueString": "SAGGSAGGSDIPIEIVDVEHTDNMISVIIKGPDGNYFVINFQFNPGNGKFNVNISIIPPEDLKSAGGSAGGS [r20_70_TrROS]", "folding stability dG unfold (kcal/mol)": 3.55}
{"residueString": "SAGGSAGGSAGKIKVEKDKKTNEYRVTIELFDKNGKPVKKIEITVKKEDLPKIKELLKKLSAGGSAGGSAGG [r11_77_TrROS_Hall]", "folding stability dG unfold (kcal/mol)": 3.4}
{"residueString": "SAGGSVVPLPLDETVELTFDGTTATFTALPDGTATATFTGPDSTARATFPPDGAVTVTVPGAGTTAASAGGS [r16_725_JUSTAS]", "folding stability dG unfold (kcal/mol)": -0.404}
{"residueString": "SVYNPNNPNIPTKLTVTIPVPEEVVAAGDTAAAEAAAEATAAALAPEGWRVTSVSFPRETGTMTVTLTRPSA [r9_75_JUSTAS]", "folding stability dG unfold (kcal/mol)": 1.33}
{"residueString": "MYTIEVEVSTEPNPNTTTVTVRITSDDGTPVPEEVVKEAAEKIKKSGYPIDELEVKPLPDGSVEVTLKYSSS [r1_408_JUSTAS]", "folding stability dG unfold (kcal/mol)": 3.76}
{"residueString": "SAGGSAGGSAGGWYRIEIEFGNKPREYVVPGAPPDEAADMLQDPGIKNVKVEPLPPEQLKSAGGSAGGSAGG [r7_502_TrROS]", "folding stability dG unfold (kcal/mol)": 0.174}
{"residueString": "SMEISFTDPAEAEALLAEVKAKLKAELPPNTVVPITVRDAAGNPTTHPITITPEPPEVVYFTETGGTVLLSA [r9_596_JUSTAS]", "folding stability dG unfold (kcal/mol)": 1.76}

Input line: I have this sequence here, SAGGSAGGSMVYKVTVYIPESGETREFVDPGSEEEIKARVKELFPDPNVKVEITPIEASPELLSAGGSAGGS [r12_92_JUSTAS] , and I need its recorded folding stability dG unfold.
Output line: 1.82

Input line: Fill blank: measured folding stability dG unfold of the sequence SAGGSAEIPPGAKLEIDEMSFDPGNGRIEMMFKIEDPDGEPLWQIRVSWEFNPENGKMKLDIEIMPSAGGSA [r15_1028_TrROS] is ____.
Output line: 3.49

Input line: Endpoint output: folding stability dG unfold of SAGGAPTVELKTETIETEDGTYLVVEAKVPTPDVTLEIKLPHGGETEVVYDPETGTATVVFRLPPDWLSAGG [r13_380_TrMRF] . Value?
Output line: 2.25

Data origin: the supplement of paper PMC12764529
